Protocol description: blockers of RIG-like receptor reporter activation – cell-based, Sendai virus stimulus, luciferase, 10K MLSCN set, TLR/RLR signaling modifier project, primary screen (AID 602276);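 also: firefly luciferase from ISG56 promoter only with Renilla not read in this screen; 0% = Sendai virus plus DMSO and 100% = medium plus DMSO without virus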
Experimental setup: HEK293 RL24 IRF3 luciferase reporter, at 10 µM, stronger effect = higher value
Entries annotated with measured inhibition
Dear colleague, please return just the value in %, with no unit written.

Recorded results for 3 compounds are shown here.
Compound: CC1(C)C(c2ccccc2)=NC(c2ccccc2)N1O (stereo not drawn)
inhibition [%]: 5.11
--
Compound: O=C(OCc1nnc(-c2ccc(Cl)cc2)o1)c1ccc(=O)n(Cc2ccccc2)n1
inhibition [%]: -5.01
--
Compound: CCOC(=O)CC1=C(C(=O)OCC)C(c2ccc(C)o2)C(C#N)=C(N)O1 (stereo not drawn)
inhibition [%]: 3.2

Quick one: inhibition of Cc1nn(-c2ccc(F)cc2)c2sc(C(=O)O)cc12 ? 13.2

Quick one: inhibition of CCN(Cc1cc2cc(OC)ccc2[nH]c1=O)C(=O)c1ccncc1 ? 13.5
